# Assayed System: CYP2D6 (Homo sapiens (Human), UniProt P10635)
# Sequence (P10635 whole entry): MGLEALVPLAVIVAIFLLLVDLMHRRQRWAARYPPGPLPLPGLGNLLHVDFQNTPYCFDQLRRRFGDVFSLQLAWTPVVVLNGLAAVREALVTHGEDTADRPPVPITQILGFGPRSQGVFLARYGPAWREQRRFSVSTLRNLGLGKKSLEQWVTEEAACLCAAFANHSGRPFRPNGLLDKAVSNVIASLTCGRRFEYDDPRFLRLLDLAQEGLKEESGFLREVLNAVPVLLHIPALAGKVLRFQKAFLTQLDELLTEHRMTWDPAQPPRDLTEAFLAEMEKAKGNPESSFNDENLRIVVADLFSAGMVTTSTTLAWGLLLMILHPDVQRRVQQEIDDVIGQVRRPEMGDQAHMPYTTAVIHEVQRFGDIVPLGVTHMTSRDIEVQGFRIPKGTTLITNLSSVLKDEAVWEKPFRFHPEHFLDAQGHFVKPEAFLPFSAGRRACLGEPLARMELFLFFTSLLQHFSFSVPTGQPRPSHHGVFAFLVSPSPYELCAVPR
# Assay Info: Cytochrome P450 CYP2D6 inhibition in human liver microsomes
# Type: in vitro ADME
# Assay Context: probe dextromethorphan 2 µM (dextrorphan formation); 1 uM test compound, human liver microsomes; average value from two experiments; negative values = no effective inhibition
Readout Name: inhibition at 20 min, 1 µM (%)
Numbers only here, please. The scale is %.

Q: Item Cc1n[nH]c2cc(/C=C/C(=O)NC3c4ccccc4CC3C)ccc12 (stereo not drawn) [Example 38] with CYP2D6 (Homo sapiens (Human), UniProt P10635) - inhibition at 20 min, 1 µM?
Result: 7.3

Q: Item Cc1ccc(F)c(C)c1NC(=O)/C=C/c1ccc2c(c1)[nH]c(=O)n2C [Example 30] with CYP2D6 (Homo sapiens (Human), UniProt P10635) - inhibition at 20 min, 1 µM?
Result: -3.33

Q: Item Cc1c(F)cccc1NC(=O)/C=C/c1ccc2nn[nH]c2c1 [Example 1] with CYP2D6 (Homo sapiens (Human), UniProt P10635) - inhibition at 20 min, 1 µM?
Result: -2.11
